Reported AC50 is given for each of the following compounds.
- MEASURED_TARGET: Microphthalmia-associated transcription factor (Homo sapiens, UniProt O75030)
- Sequence (O75030 whole entry): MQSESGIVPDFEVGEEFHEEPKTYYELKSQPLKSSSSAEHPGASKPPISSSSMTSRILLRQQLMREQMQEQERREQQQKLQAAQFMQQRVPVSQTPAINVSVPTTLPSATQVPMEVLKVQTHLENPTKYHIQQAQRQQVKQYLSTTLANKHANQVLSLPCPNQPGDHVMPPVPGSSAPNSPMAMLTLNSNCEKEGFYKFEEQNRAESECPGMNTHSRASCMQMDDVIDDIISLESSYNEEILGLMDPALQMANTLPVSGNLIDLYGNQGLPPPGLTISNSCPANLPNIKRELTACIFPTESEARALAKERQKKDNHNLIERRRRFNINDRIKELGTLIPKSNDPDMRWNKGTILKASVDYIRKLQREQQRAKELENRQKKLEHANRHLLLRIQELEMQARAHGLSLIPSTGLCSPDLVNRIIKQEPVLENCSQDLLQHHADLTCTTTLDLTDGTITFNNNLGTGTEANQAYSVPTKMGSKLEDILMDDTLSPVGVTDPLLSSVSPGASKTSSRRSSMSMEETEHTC
- ASSAY_REMARKS: reducers of TRPM1 reporter luminescence, concentration series – cell-based, SK-MEL-5, cherry-picked, set 3, MITF inhibitor project, dose response (AID 493073);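 further: SK-MEL-5 melanoma cells with luciferase driven by the MITF target TRPM1 promoter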
- Format: functional
Calls of active or inactive are those of the source.

{"COMPOUND": "CC1CCCC(NCC(O)COC(c2ccc(F)cc2)c2ccc(F)cc2)C1C (configuration not stated)", "AC50": "10.8 µM (active)"}
{"COMPOUND": "CCOc1ccc(-c2ccc(SC)nn2)cc1", "AC50": "5.17 µM (active)"}
{"COMPOUND": "CCOc1ccc(NC(=O)Nc2cccc(C(=O)O)c2)cc1", "AC50": "1.53 µM (active)"}
{"COMPOUND": "Cc1ccc(C(O)(c2ccc(C)c(C)c2)C2CN3CCC2CC3)cc1C (configuration not stated)", "AC50": "10.1 µM (active)"}
{"COMPOUND": "O=C(Cc1ccc2c(c1)OCO2)NN=Cc1ccc([N+](=O)[O-])o1", "AC50": "8.55 µM (active)"}
{"COMPOUND": "CC1CCC(C(C)C)C(OC(=O)Cn2c(-c3ccc(Br)cc3)[n+](C)c3ccccc32)C1 (configuration not stated)", "AC50": "7.12 µM (active)"}
{"COMPOUND": "CC(=O)OCCNc1cc(Sc2nc3ccccc3[nH]2)c2nonc2c1[N+](=O)[O-]", "AC50": "11.5 µM (active)"}

* * *

- Test system: BJ
- ASSAY_REMARKS: BJ-TERT fibroblast viability loss – cell-based, RAS-independent, luminescence, dose response (AID 1933)
- Type: functional
- CONDITION_CONTEXT: Homo sapiens
Activity calls are given as the source filed them.
RESULT_TYPE: EC50

{"MOLECULE": "O=C1/C(=C/c2ccccc2Cl)SC(=S)N1CCC(=O)N1CCCCC1CCO (stereo not given)", "VALUE_OBSERVED": "19 µM (active)"}
{"MOLECULE": "COc1ccc(N/C=C/C(=O)c2cc(OC)c(OC)c(OC)c2)cc1", "VALUE_OBSERVED": "0.666 µM (active)"}
{"MOLECULE": "NC(=O)c1cn(C2OC(CO)C(O)C2O)c2ncnc(N)c12 (stereo not given)", "VALUE_OBSERVED": "0.874 µM (active)"}
{"MOLECULE": "O=C(/C=C/c1ccc([N+](=O)[O-])o1)NNC(=O)c1ccc(F)cc1", "VALUE_OBSERVED": "7.04 µM (inconclusive)"}
{"MOLECULE": "CCCSc1ccc2nc(-c3ccccc3)cn2c1", "VALUE_OBSERVED": "22.8 µM (active)"}

* * *

- MEASURED_TARGET: Peroxisome proliferator-activated receptor gamma/Nuclear receptor coactivator 1 (Homo sapiens, UniProt P37231);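 further: agonist potency as compounds enhance coactivator SRC-1 recruitment to PPARgamma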
- Sequence (P37231 whole entry): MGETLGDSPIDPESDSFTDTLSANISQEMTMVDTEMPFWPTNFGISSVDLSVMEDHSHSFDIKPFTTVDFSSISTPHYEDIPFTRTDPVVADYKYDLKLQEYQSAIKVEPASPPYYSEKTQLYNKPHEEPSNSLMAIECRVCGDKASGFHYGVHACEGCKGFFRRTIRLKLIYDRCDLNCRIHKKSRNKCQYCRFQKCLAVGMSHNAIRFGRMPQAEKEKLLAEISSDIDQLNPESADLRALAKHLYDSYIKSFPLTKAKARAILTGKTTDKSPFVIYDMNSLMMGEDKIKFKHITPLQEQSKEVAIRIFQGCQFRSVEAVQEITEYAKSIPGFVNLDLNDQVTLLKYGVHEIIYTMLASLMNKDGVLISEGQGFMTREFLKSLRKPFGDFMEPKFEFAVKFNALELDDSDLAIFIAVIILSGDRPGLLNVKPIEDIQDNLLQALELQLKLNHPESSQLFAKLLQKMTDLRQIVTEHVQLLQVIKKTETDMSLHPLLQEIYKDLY
- Sequence (Q15788 whole entry, further chain): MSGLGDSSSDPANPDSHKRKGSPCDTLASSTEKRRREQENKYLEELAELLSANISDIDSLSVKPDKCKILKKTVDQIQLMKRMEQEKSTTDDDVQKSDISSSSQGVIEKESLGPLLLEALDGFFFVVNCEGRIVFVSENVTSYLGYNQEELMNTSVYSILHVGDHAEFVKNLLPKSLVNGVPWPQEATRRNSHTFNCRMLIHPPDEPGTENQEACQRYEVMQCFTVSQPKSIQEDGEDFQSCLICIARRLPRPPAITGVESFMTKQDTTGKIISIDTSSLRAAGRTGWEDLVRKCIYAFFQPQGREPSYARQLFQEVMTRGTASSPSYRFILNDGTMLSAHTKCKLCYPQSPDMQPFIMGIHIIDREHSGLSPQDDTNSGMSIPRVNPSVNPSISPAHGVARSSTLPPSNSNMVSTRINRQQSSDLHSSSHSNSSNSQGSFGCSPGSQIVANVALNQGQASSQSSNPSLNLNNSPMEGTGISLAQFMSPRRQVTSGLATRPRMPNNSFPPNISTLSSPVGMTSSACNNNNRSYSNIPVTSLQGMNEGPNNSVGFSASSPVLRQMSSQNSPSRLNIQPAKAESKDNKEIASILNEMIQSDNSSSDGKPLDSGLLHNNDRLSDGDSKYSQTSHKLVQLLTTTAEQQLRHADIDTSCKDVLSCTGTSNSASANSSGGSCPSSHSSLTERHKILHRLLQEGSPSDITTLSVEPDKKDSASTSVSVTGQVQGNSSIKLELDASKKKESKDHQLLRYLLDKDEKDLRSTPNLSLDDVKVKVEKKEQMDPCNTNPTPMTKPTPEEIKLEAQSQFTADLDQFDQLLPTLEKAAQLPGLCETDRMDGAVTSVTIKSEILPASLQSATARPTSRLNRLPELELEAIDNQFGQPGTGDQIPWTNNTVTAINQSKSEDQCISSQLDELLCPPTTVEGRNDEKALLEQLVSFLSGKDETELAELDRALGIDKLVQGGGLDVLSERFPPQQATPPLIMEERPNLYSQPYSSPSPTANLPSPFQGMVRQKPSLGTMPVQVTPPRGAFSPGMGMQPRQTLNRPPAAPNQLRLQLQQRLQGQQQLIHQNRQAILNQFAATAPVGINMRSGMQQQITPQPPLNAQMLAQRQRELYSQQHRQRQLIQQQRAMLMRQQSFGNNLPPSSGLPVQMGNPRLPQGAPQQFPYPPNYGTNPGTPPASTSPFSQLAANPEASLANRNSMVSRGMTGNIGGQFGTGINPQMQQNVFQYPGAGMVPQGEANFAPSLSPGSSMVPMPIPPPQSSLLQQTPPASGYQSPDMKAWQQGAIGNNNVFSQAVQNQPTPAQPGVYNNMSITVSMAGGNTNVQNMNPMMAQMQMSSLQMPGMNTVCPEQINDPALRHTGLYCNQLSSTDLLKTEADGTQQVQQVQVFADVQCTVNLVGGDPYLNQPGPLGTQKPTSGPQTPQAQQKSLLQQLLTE
- Type: functional
RESULT_TYPE: EC50

{"MOL_SMILES": "CC(=O)c1cccc(NC(=O)c2cc3ccccn3n2)c1", "RESULT_TYPE": "EC50", "VALUE_OBSERVED": "> 79.4 µM (not active)"}
{"MOL_SMILES": "COc1ccc2c(-c3ccccc3)cc(SCC(=O)NC(N)=O)nc2c1", "RESULT_TYPE": "EC50", "VALUE_OBSERVED": "> 79.4 µM (not active)"}
{"MOL_SMILES": "CC1(C)Cc2c(C#N)c(SCC(=O)c3ccccc3)nc(N3CCOCC3)c2CO1", "RESULT_TYPE": "EC50", "VALUE_OBSERVED": "> 79.4 µM (not active)"}
{"MOL_SMILES": "COc1ccc(-n2nc(C(=O)NCC(=O)Nc3ccccn3)c3ccccc3c2=O)cc1Cl", "RESULT_TYPE": "EC50", "VALUE_OBSERVED": "25.8 µM (not active)"}

* * *

- ASSAY_REMARKS: Luminescence Cell-Based Dose Response HTS to Identify Activators of Luciferase Translation or Activity in H4 […] Cells. [Related pubchem assays: 1829 (Project Summary), 1814 (Primary HTS)]
- Assay type: functional
Active and inactive are the calls of the source.

{"MOL_SMILES": "Cc1csc(SCC(=O)c2c(N)n(C)c(=O)n(C)c2=O)n1", "EC50": "29.5 µM (active)"}
{"MOL_SMILES": "CC(C)(C)c1ccc(-c2noc(-c3ccc4c(c3)CCO4)n2)cc1", "EC50": "2.25 µM (active)"}
{"MOL_SMILES": "Cc1cc(NC(=O)/C=C/c2ccccc2Cl)no1", "EC50": "118 µM (active)"}
{"MOL_SMILES": "C=C1C[C@@H]2[C@H](CC[C@]3(C)C(=O)CC[C@@H]23)[C@@]2(C)C=CC(=O)C=C12", "EC50": "6.44 µM (active)"}
{"MOL_SMILES": "CCCCNC(=O)Cn1nc([N+](=O)[O-])c([N+](=O)[O-])c1C", "EC50": "11.1 µM (active)"}

* * *

- MEASURED_TARGET: UniProt:P38532
- Sequence (P38532 whole entry): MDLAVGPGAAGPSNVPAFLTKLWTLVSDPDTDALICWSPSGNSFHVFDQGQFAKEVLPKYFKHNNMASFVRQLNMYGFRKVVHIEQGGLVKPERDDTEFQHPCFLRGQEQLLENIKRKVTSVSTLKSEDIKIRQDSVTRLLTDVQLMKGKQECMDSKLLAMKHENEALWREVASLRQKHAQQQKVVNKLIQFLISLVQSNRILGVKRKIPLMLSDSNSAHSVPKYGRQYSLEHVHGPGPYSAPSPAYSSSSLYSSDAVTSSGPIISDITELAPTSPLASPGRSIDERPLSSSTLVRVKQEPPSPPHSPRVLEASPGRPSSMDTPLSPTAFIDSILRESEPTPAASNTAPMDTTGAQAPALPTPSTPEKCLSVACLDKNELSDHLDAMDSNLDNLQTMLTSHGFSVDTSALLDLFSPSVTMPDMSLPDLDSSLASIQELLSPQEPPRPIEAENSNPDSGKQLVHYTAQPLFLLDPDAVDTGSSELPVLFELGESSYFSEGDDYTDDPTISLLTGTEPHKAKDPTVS
- ASSAY_REMARKS: decrease of HSF1-responsive luciferase luminescence – cell-based, NIH3T3, dose retest, confirmation (AID 2382);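 further: NIH3T3 fibroblasts with HSF1-driven luciferase reporter stressed by proteasome inhibitor MG132; luminescence from HSF1-driven luciferase expression after 8 hours of MG132 stress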
- Type: functional
The source made the active and inactive calls.
compounds and their reported EC50

{"COMPOUND": "Cc1nn(C(C)C(=O)NCCCc2ccccc2)c(=O)c2cc3occc3n12 (centres undefined)", "MEASURED_TARGET": "UniProt:P38532", "EC50": "> 195 µM (not active)"}
{"COMPOUND": "Cc1cc(C)c2cc(CN(CCN(C)C)C(=O)Nc3ccccc3Cl)c(O)nc2c1", "MEASURED_TARGET": "UniProt:P38532", "EC50": "> 195 µM (not active)"}
{"COMPOUND": "Cc1ccc(-c2nn[nH]n2)o1", "MEASURED_TARGET": "UniProt:P38532", "EC50": "> 195 µM (not active)"}
{"COMPOUND": "COc1ccc(C(CCN(Cc2ccc(OC)c(OC)c2)C(=O)CCl)c2ccccc2)cc1 (centres undefined)", "MEASURED_TARGET": "UniProt:P38532", "EC50": "3.19 µM (active)"}
{"COMPOUND": "CC1CCC2(CC1)N=C(N)Nc1nc3ccccc3n12 (centres undefined)", "MEASURED_TARGET": "UniProt:P38532", "EC50": "> 195 µM (not active)"}
{"COMPOUND": "COc1cc(C2C(C#N)=C(N)N(N(C)C)C3=C2C(=O)CC(C)(C)C3)ccc1O (centres undefined)", "MEASURED_TARGET": "UniProt:P38532", "EC50": "> 195 µM (not active)"}
{"COMPOUND": "Cc1onc(-c2ccccc2)c1C(=O)Nc1sc2c(c1C(N)=O)CCC2", "MEASURED_TARGET": "UniProt:P38532", "EC50": "> 195 µM (not active)"}
{"COMPOUND": "COc1ccc(NC(=O)CCc2nnc3ccc(N4CCC(C)CC4)nn23)cc1OC", "MEASURED_TARGET": "UniProt:P38532", "EC50": "> 195 µM (not active)"}
{"COMPOUND": "c1ccc(OCCSc2nc3ccccc3o2)cc1", "MEASURED_TARGET": "UniProt:P38532", "EC50": "> 195 µM (not active)"}

* * *

Some compounds, each annotated with its measured AC50.
- MEASURED_TARGET: UniProt:Q06710
- Sequence (Q06710 whole entry): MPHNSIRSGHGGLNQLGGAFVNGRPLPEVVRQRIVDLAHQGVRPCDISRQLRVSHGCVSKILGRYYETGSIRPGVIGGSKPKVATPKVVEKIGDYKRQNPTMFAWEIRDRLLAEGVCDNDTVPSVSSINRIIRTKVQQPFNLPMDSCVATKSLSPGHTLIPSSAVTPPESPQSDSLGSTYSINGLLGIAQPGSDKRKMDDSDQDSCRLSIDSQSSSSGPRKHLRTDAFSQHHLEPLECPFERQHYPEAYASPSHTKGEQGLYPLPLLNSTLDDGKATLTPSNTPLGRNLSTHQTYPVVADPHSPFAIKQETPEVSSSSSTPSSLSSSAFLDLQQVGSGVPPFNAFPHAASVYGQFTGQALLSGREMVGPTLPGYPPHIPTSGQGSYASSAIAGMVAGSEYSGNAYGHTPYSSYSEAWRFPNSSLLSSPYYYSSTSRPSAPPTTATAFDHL
- ASSAY_REMARKS: PAX8 transcriptional activity inhibition in RMG-I – RMG-I cells, luciferase, cherry-pick, dose response (AID 687027);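 further: luciferase reporter driven by Pax8 target thyroperoxidase promoter measured by SteadyGlo luminescence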
- Format: functional, cell-based
Activity calls are given as the source filed them.
RESULT_TYPE: AC50

{"MOL_SMILES": "O=C(NCCN1C(=O)S/C(=C\\c2ccc(OC(F)F)cc2)C1=O)c1cnccn1", "VALUE_OBSERVED": "15.5 µM (active)"}
{"MOL_SMILES": "N#Cc1ccc(-c2ccc([C@@H]3[C@@H]4CN(S(=O)(=O)c5ccc(-c6ccccc6)cc5)C[C@H]3N4)cc2)cc1", "VALUE_OBSERVED": "41.9 µM (active)"}
{"MOL_SMILES": "C[C@@H]1CCCCO[C@@H](CN(C)Cc2ccc(C(F)(F)F)cc2)[C@@H](C)CN([C@@H](C)CO)C(=O)c2cc(NS(=O)(=O)c3ccc(Cl)cc3)ccc2O1", "VALUE_OBSERVED": "7.31 µM (active)"}

* * *

- MEASURED_TARGET: Cytochrome P450 2C9 (Homo sapiens, UniProt P11712)
- Sequence (P11712 whole entry): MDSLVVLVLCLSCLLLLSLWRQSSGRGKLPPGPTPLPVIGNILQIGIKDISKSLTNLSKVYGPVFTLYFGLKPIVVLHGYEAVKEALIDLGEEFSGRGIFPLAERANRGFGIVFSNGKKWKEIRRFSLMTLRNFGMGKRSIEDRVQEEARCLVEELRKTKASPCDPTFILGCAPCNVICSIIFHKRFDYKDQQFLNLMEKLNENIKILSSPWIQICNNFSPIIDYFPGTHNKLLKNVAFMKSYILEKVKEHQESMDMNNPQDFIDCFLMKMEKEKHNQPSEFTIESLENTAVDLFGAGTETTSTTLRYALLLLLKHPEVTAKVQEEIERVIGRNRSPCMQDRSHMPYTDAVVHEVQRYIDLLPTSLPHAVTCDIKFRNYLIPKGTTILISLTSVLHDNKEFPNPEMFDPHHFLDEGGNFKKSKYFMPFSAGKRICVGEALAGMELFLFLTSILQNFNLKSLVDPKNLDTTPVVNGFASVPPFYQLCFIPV
# key: entry, value: AC50
RESULT_TYPE: AC50

{"MOLECULE": "COc1ccc(N2CCN(Cc3nc4c(c(=O)n(C)c(=O)n4C)n3CC(C)=O)CC2)cc1", "MEASURED_TARGET": "Cytochrome P450 2C9 (Homo sapiens, UniProt P11712)", "RESULT_TYPE": "AC50", "VALUE_OBSERVED": "28.2 µM (inconclusive)"}
{"MOLECULE": "Cc1nn(C)cc1C(=O)NN=C(S)Nc1ccccc1", "MEASURED_TARGET": "Cytochrome P450 2C9 (Homo sapiens, UniProt P11712)", "RESULT_TYPE": "AC50", "VALUE_OBSERVED": "39.8 µM (inconclusive)"}
{"MOLECULE": "C[C@H]1O[C@@H](CC(=O)O)Cc2c(O)c3c(c(O)c21)C(=O)C=C(C1=CC(=O)c2c(O)c4c(c(O)c2C1=O)C[C@H](CC(=O)O)O[C@@H]4C)C3=O", "MEASURED_TARGET": "Cytochrome P450 2C9 (Homo sapiens, UniProt P11712)", "RESULT_TYPE": "AC50", "VALUE_OBSERVED": "7.94 µM (inconclusive)"}
{"MOLECULE": "COCCn1c(=O)c(-c2cc(F)cc(F)c2)nc2cnc(OC)nc21", "MEASURED_TARGET": "Cytochrome P450 2C9 (Homo sapiens, UniProt P11712)", "RESULT_TYPE": "AC50", "VALUE_OBSERVED": "39.8 µM (inconclusive)"}
{"MOLECULE": "COc1ccc(NC(=O)CSc2nc3ccccc3cc2Cc2ccccc2)cc1", "MEASURED_TARGET": "Cytochrome P450 2C9 (Homo sapiens, UniProt P11712)", "RESULT_TYPE": "AC50", "VALUE_OBSERVED": "1.26 µM (inconclusive)"}
{"MOLECULE": "COc1cccc(-c2cc(C(F)(F)F)nc(N3CCCCC3)n2)c1", "MEASURED_TARGET": "Cytochrome P450 2C9 (Homo sapiens, UniProt P11712)", "RESULT_TYPE": "AC50", "VALUE_OBSERVED": "0.355 µM (inconclusive)"}
{"MOLECULE": "COc1ccc2c(c1)C(=O)N(CCc1ccc(S(=O)(=O)NC(=O)NC3CCCCC3)cc1)C(=O)C2(C)C [GLIQUIDONE]", "MEASURED_TARGET": "Cytochrome P450 2C9 (Homo sapiens, UniProt P11712)", "RESULT_TYPE": "AC50", "VALUE_OBSERVED": "12.6 µM (inconclusive)"}
{"MOLECULE": "CC1(C)Oc2cc(N)c([N+](=O)[O-])cc2O1", "MEASURED_TARGET": "Cytochrome P450 2C9 (Homo sapiens, UniProt P11712)", "RESULT_TYPE": "AC50", "VALUE_OBSERVED": "35.5 µM (inconclusive)"}
{"MOLECULE": "Cc1ccccc1N(C(=O)Cc1cccs1)C(C(=O)NCC1CCCO1)c1cccnc1 (configuration not stated)", "MEASURED_TARGET": "Cytochrome P450 2C9 (Homo sapiens, UniProt P11712)", "RESULT_TYPE": "AC50", "VALUE_OBSERVED": "22.4 µM (inconclusive)"}
{"MOLECULE": "Cc1ccc(C(c2nnnn2CC2CCCO2)N2CCN(C(=O)c3ccco3)CC2)cc1 (configuration not stated)", "MEASURED_TARGET": "Cytochrome P450 2C9 (Homo sapiens, UniProt P11712)", "RESULT_TYPE": "AC50", "VALUE_OBSERVED": "25.1 µM (inconclusive)"}
{"MOLECULE": "COc1ccc(NC(=O)CSC2=NC(=O)CC(C)=N2)cc1", "MEASURED_TARGET": "Cytochrome P450 2C9 (Homo sapiens, UniProt P11712)", "RESULT_TYPE": "AC50", "VALUE_OBSERVED": "25.1 µM (inconclusive)"}
{"MOLECULE": "CCCC(=O)Nc1nc2nc(-c3ccccc3)cc(-c3ccccc3)n2n1", "MEASURED_TARGET": "Cytochrome P450 2C9 (Homo sapiens, UniProt P11712)", "RESULT_TYPE": "AC50", "VALUE_OBSERVED": "0.0112 µM (inconclusive)"}
{"MOLECULE": "Cc1c(Nc2cc(N3CCCC(C)C3)c3nonc3c2[N+](=O)[O-])c(=O)n(-c2ccccc2)n1C (configuration not stated)", "MEASURED_TARGET": "Cytochrome P450 2C9 (Homo sapiens, UniProt P11712)", "RESULT_TYPE": "AC50", "VALUE_OBSERVED": "2.51 µM (inconclusive)"}
{"MOLECULE": "CCC(=O)O[C@@]1(C(=O)CCl)[C@@H](C)C[C@@H]2[C@H]3CCC4=CC(=O)C=C[C@@]4(C)[C@]3(F)[C@@H](O)C[C@@]21C", "MEASURED_TARGET": "Cytochrome P450 2C9 (Homo sapiens, UniProt P11712)", "RESULT_TYPE": "AC50", "VALUE_OBSERVED": "15.8 µM (inconclusive)"}
{"MOLECULE": "NC(=O)CI [IODOACETAMIDE]", "MEASURED_TARGET": "Cytochrome P450 2C9 (Homo sapiens, UniProt P11712)", "RESULT_TYPE": "AC50", "VALUE_OBSERVED": "39.8 µM (inconclusive)"}
{"MOLECULE": "COc1ccc(NS(=O)(=O)c2ccc(NC(=O)c3cnn4c(C(F)F)cc(-c5ccc(C)cc5)nc34)cc2)cc1", "MEASURED_TARGET": "Cytochrome P450 2C9 (Homo sapiens, UniProt P11712)", "RESULT_TYPE": "AC50", "VALUE_OBSERVED": "3.55 µM (inconclusive)"}
{"MOLECULE": "O=C(CCc1nc(-c2ccccc2)no1)NCCc1ccccc1", "MEASURED_TARGET": "Cytochrome P450 2C9 (Homo sapiens, UniProt P11712)", "RESULT_TYPE": "AC50", "VALUE_OBSERVED": "15.8 µM (inconclusive)"}
